Tested on: SK-MEL-2
Assay: NCI 60 cell line screen
Type: cell-based
Settings: SK-MEL-2, Melanoma; single concentration 10^−5 M
Measured parameter: Growth % (%)
One number for each entry, in %.

- COc1cc(-c2cc(-c3c[nH]c4ccccc34)nc(-c3c[nH]c4ccccc34)c2C#N)cc(OC)c1OC [4g]: 92.02

For the 2 molecules below, give their Growth % values.
1. N#Cc1c(-c2ccc([N+](=O)[O-])cc2)cc(-c2c[nH]c3ccccc23)nc1-c1c[nH]c2ccccc12 [4h]
2. N#Cc1c(-c2ccccc2)cc(-c2c[nH]c3ccccc23)nc1-c1c[nH]c2ccccc12 [4a]

96.75
97.65

For the 2 molecules below, give their Growth % values.
1. CN(C)c1ccc(-c2cc(-c3c[nH]c4ccccc34)nc(-c3c[nH]c4ccccc34)c2C#N)cc1 [4i]
2. COc1ccc(-c2cc(-c3c[nH]c4ccccc34)nc(-c3c[nH]c4ccccc34)c2C#N)cc1 [4e]

[102.08, 100.09]
